Parameter: pIC50. Scope: all listed entries.
Molecular target: Acetylcholinesterase (Homo sapiens, UniProt P22303)
Sequence (P22303 32-614): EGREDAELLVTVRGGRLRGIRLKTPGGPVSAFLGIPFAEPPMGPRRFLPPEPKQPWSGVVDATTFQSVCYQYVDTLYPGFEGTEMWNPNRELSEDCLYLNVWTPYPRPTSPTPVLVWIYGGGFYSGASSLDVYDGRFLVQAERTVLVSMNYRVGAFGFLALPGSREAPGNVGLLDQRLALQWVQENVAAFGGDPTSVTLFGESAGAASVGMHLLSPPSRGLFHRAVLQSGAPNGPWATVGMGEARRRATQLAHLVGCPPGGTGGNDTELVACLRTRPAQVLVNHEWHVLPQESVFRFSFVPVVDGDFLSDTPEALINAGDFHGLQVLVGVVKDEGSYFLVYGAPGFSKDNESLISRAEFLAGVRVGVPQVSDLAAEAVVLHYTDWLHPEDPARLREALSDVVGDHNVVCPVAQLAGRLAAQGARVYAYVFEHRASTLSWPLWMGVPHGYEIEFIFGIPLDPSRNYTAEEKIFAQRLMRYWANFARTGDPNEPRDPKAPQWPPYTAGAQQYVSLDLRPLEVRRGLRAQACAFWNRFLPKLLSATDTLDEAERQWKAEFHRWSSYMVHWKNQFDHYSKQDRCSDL
Test: biochemical
# reply with the number alone; pIC50 is -log10 of concentration in mol/L

Guide cases for pIC50, answers given:
{"columns": ["COMPOUND", "PROPERTY_MEASURED", "READOUT_VALUE"],
 "data": [
  ["COc1ccc2c3c1O[C@H]1C[C@@H](O)C=C[C@@]31CC[N+](C)(CC1CC1)C2 (stereo partly drawn)", "pIC50", 5.92],
  ["COc1ccc2c3c1O[C@@H]1C[C@H](O)C=C[C@]31CCN(C(=O)NC(C)C)C2", "pIC50", 5.10],
  ["COc1cc(C)c2c3c1OC1C[C@H](O)C=CC31CC[N+](C)(Cc1ccc(C(F)(F)F)cc1)C2 (mixture of isomers)", "pIC50", 4.22],
  ["COc1ccc2c3c1OC1C[C@@H](O)C=CC31CCN(CCCN1CC3CC1CN3c1ccc(F)cc1)C2 (mixture of isomers)", "pIC50", 5.28],
  ["COc1ccc2c3c1OC1C[C@@H](O)C=CC31CCN(C(=O)Nc1ccccc1)C2 (mixture of isomers)", "pIC50", 4.15]
]}

Query :: Identify pIC50 associated with the compound C#CC[N+]1(C)CC[C@@]23C=C[C@H](O)C[C@@H]2Oc2c(OC)ccc(c23)C1 (stereo partly drawn)
Result :: 5.85

Query :: Identify pIC50 associated with the compound `C#CCN1CC[C@@]23C=C[C@H](O)C[C@@H]2Oc2c(OC)ccc(c23)C1`
Result :: 4.49

Query :: Identify pIC50 associated with the compound `CN1CC[C@@]23C=C[C@H](O)C[C@@H]2Oc2c(Oc4ccccc4)ccc(c23)C1`
Result :: 4.68

Query :: Identify pIC50 associated with the compound `CC(C)NC(=O)N1CC[C@@]23C=C[C@H](O)C[C@@H]2Oc2c(O)ccc(c23)C1`
Result :: 5.20

Query :: Identify pIC50 associated with the compound `COc1ccc2c3c1O[C@@H]1C[C@H](O)C=C[C@]31CCN(C(=O)NC(C)(C)C)C2`
Result :: 4.03

Query :: Identify pIC50 associated with the compound `COc1cc(Br)c2c3c1O[C@H]1C[C@@H](O)C=C[C@@]31CCN(C)C2`
Result :: 5.40

Query :: Identify pIC50 associated with the compound COc1ccc2c3c1OC1C[C@@H](O)C=CC31CCN(CCCO)C2 (mixture of isomers)
Result :: 5.14

Query :: Identify pIC50 associated with the compound COc1ccc2c3c1O[C@H]1C[C@@H](O)C=C[C@@]31CC[N+](C)(CCCCl)C2 (stereo partly drawn)
Result :: 6.46

Query :: Identify pIC50 associated with the compound COc1ccc2c3c1O[C@H]1C[C@@H](O)C=C[C@@]31CC[N+](C)(CCN1CCCCC1)C2 (stereo partly drawn)
Result :: 5.40

Query :: Identify pIC50 associated with the compound COc1cc(Br)c2c3c1OC1C[C@@H](O)C=CC31CCN(C(=O)CCN1CCCCC1)C2 (mixture of isomers)
Result :: 6.70
